Recorded SPOT peptide array binding signal intensity for the following binders
- subject of test: CaBzz1-D2
- experimental details: SPOT peptide array binding signal intensity (averaged, normalized) (arbitrary units (background-subtracted, floor 0; scale differs between SH3 domains)); higher = stronger binding of the SH3 domain to the peptide
Give only the figure.

binder | measurement
NENKKLPPAPTVFGL | 1.5
GKKVRPLLVLLLSRA | 8
FYHRPAPKPPVTKKV | 529

Next, consider the following binder.
Tell me the measured SPOT peptide array binding signal intensity of GDHPKGPPPPPPPPD , please. 1470
